Origin of measurements: PubChem BioAssay

Experiment: ATP-based viability of Huh7 replicon cells – cell-based, CellTiter-Glo luminescence, basal, 48 h, cytotoxicity control for HCV replication inhibitor project, primary screen (AID 1143);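 note: Huh7 hepatoma cells carrying a hepatitis C replication reporter with no stimulus; test concentration not given here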
Conditions: higher = more signal, called active from +8 up or from −8 down
property: z-score
// response body must contain only the number

Task: Supply reported z-score belonging to this compound: CC(C)(C)N1CC=CC23O[C@@H]4C=CCCOC(=O)C4[C@H]2C(=O)N(CCCO)[C@@H]3C1=O (stereo not given in full)
Output: -2.5

Task: Supply reported z-score belonging to this compound: C[C@@H]1ON(c2ccccc2)[C@H](c2ccccc2)[C@H]1C(=O)N1C(=O)OC[C@H]1Cc1ccccc1
Output: -1.04

Task: Supply reported z-score belonging to this compound: COc1cc(NN2C(C(O)c3ccc(I)cc3)C=CC3C(=O)N(C)C(=O)C32)cc(OC)c1OC (stereo not given)
Output: -2.58

Task: Supply reported z-score belonging to this compound: CN(C)C(=O)[C@@]1(Cc2ccccc2N=[N+]=[N-])N=C(c2ccc(OCCCO)cc2)O[C@H]1c1ccccc1N=[N+]=[N-]
Output: -3.76

* * *

# key: entry, value: composite z-score
Molecular target: Torsin-1A (Homo sapiens)
Assay: torsin A mutant lysate binding on microarrays – cell lysate, small-molecule microarray, COS7 lysate, 635/667 nm fluorescence, primary screen (AID 1150);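 note: score pools 667 nm emission and signal to noise measuring lysate protein binding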
Details: COS7 hTOR1A mutant lysate, 635 nm fluorescence, higher = more signal
// response body must contain only the number

- structure_smiles: "COc1ccc([Si](C)(C)[C@@H]2[C@@H](CCO)O[C@]3(C(=O)N(Cc4ccc(N5C(=O)c6ccccc6Oc6ccccc65)cc4)c4ccccc43)[C@H]2C)cc1"
  system_name: "Torsin-1A (Homo sapiens)"
  composite z-score: -0.949
- structure_smiles: "COCCCNC(=O)[C@@]1(Cc2ccccc2)COC(c2ccc(OCCCO)cc2)=N1"
  system_name: "Torsin-1A (Homo sapiens)"
  composite z-score: 0.878
- structure_smiles: "O=C1O[C@@H](c2ccccc2)[C@@H](c2ccccc2)N2[C@@H](c3ccc(O)cc3)[C@]3(C(=O)Nc4ccc(C#CC5(O)CCCCCC5)cc43)[C@@H](C(=O)N3CCN(c4ncccn4)CC3)[C@H]12"
  system_name: "Torsin-1A (Homo sapiens)"
  composite z-score: 0.743
- structure_smiles: "C=CCNC(=O)[C@H]1[C@@H]2C(=O)O[C@@H](c3ccccc3)[C@@H](c3ccccc3)N2[C@@H](c2ccc(O)cc2)[C@]12C(=O)N(C(=O)OCCOC)c1ccc(C#CC3(O)CCCCCC3)cc12"
  system_name: "Torsin-1A (Homo sapiens)"
  composite z-score: 0.331

Here's the next entry for you.
Task: Look up and report measured composite z-score (Torsin-1A (Homo sapiens)) for the following compound: COc1ccc([Si](C)(C)[C@@H]2[C@@H](CCO)O[C@]3(C(=O)N(Cc4ccccc4)c4ccc(N5CCCCC5=O)cc43)[C@H]2C)cc1
Output: 0.198

* * *

Assay: S6 kinase pathway phospho-S6 level changes – cell-based, A549, cytoblot, luminescence, serum-stimulated, primary screen (AID 1158);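 note: serum-stimulated A549 lung adenocarcinoma cells; signal is phosphorylated S6 detected by cytoblot immunostaining with HRP secondary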
Details: 5 h, higher = more signal
Criterion: z-score meeting or surpassing 0.1. Met: Yes. Not met: No.

Worked examples follow.
- molecule: "NC(=O)NCC#Cc1ccc2c(c1)[C@]1(C(=O)N2)[C@H](c2ccc(O)cc2)N2[C@H](c3ccccc3)[C@H](c3ccccc3)OC(=O)[C@H]2[C@@H]1C(N)=O"
  assigned_category: "Yes"
- molecule: "COCCOC(=O)N1C(=O)[C@@]2(c3cc(C#CCCO)ccc31)[C@H](C(=O)NC[C@H](O)c1ccccc1)[C@H]1C(=O)O[C@H](c3ccccc3)[C@H](c3ccccc3)N1[C@@H]2c1ccccc1OCCO"
  assigned_category: "No"
- molecule: "CC1CC/C=C\\[C@H]2OC34C=CCN(c5ccc(Cl)cc5)C(=O)[C@H]3N(C(CO)C(C)C)C(=O)[C@]4(C)C2C(=O)O1 (stereo partly specified)"
  assigned_category: "No"
- molecule: "COc1cc2c(cc1OC)CN(C(=O)[C@@H]1[C@H]3C(=O)O[C@H](c4ccccc4)[C@H](c4ccccc4)N3[C@H](c3ccc(OCCO)cc3)[C@@]13C(=O)Nc1ccc(C#CCCO)cc13)CC2"
  assigned_category: "Yes"
- molecule: "C=C(COC)C(=O)CC[C@H](OC(=O)c1ccccc1-c1ccccc1C(=O)O)c1ccc(CO)o1"
  assigned_category: "No"

From here, focus on the item given below.
Task: Check if z-score >= 0.1 (inclusive). Item: COCC1=C([C@H](O)CCc2ccccc2)[C@H](CO)[C@@H]2C(=O)N(C)C(=O)[C@@H]2C1
Output: Yes
